Effective Molec. Area (ad) values, listed per item
# assayNotes: Langmuir monolayer pressure-area isotherms
# Format: physicochemical, E. coli
# testSettings: area taken by the drug in the monolayer, from slopes of log(ΔArea) vs. surface pressure
valueType: Effective Molec. Area (ad)

> print(dat)
                                   compound                   valuetype  result
1  O=C(CCN(Cc1ccc2c(c1)OCO2)Cc1ccc2c(c1)OCO2)Nc1c(O)ccc(C(=O)O)c1O [G271]  Effective Molec. Area (ad)  18 Å^2
2  CC1(C)C2CC=C(CN(CCC(=O)Nc3c(O)ccc(C(=O)O)c3O)CC3=CCC4CC3C4(C)C)C1C2 [QD-11, myrtemycin]  Effective Molec. Area (ad)  31 Å^2
3  O=C(CCN(Cc1cccnc1)Cc1cccnc1)Nc1c(O)ccc(C(=O)O)c1O [G258]  Effective Molec. Area (ad)  18 Å^2
4  CC1(C)C2CC=C(CNCCC(=O)Nc3c(O)ccc(C(=O)O)c3O)C1C2 (stereo not shown) [QL-03]  Effective Molec. Area (ad)  28 Å^2
